system-name: UniProt:P17252
pIC50: −log10 of the molar value.
assay-metric: pIC50

{"columns": ["molecule", "pIC50"],
 "data": [
  ["O=C(N[C@H]1CS(=O)(=O)CCC[C@H]1OC(=O)c1cc(O)c(C(=O)c2c(O)cccc2C(=O)O)c(O)c1)c1ccc(O)cc1", 5.02]
]}

a. O=C(N[C@H]1COCCC[C@H]1OC(=O)c1cc(O)c(C(=O)c2c(O)cccc2C(=O)O)c(O)c1)c1ccc(O)cc1
b. O=C(N[C@H]1CNCCC[C@H]1OC(=O)c1cc(O)c(C(=O)c2c(O)cccc2C(=O)O)c(O)c1)c1ccc(O)cc1 (racemic)
Sorting ascending by pIC50, which comes first: a or b ? Give the chosen item's label as your response.
a
